List of IC50 tested on rat VAP-1 enzyme (SSAO) (Rattus norvegicus (Rat), UniProt O08590).
Sequence (O08590 whole entry): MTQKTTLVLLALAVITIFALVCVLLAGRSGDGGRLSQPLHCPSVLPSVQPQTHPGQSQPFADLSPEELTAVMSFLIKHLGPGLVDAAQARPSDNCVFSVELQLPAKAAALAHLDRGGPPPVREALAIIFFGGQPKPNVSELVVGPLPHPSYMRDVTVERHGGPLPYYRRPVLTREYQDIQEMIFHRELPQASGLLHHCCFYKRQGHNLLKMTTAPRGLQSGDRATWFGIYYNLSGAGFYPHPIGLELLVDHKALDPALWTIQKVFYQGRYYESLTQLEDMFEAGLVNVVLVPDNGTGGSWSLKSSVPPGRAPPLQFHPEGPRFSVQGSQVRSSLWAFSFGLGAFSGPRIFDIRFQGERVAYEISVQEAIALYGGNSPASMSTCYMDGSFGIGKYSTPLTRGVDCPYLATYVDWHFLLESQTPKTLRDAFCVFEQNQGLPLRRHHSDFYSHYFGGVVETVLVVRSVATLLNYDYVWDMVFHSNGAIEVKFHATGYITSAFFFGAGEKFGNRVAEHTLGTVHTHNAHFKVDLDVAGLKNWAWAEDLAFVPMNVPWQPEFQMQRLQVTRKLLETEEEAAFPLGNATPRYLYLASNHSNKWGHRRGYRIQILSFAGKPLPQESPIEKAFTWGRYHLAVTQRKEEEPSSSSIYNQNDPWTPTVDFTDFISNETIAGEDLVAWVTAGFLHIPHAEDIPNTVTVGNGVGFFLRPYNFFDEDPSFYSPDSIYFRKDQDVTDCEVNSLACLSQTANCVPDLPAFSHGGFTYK
Structures can show the parent of a compound that is named as a salt.
Recorded endpoint: IC50

1. NNC(=O)Cc1ccc(CCc2cncc(N3CCNCC3)c2)cc1 | 9.4 nM
2. CC(=O)N1CCN(c2ccc(CCc3csc(CCC(=O)NN)c3)nc2)CC1 [Production Example 121, trihydrochloride] | 1.6 nM
3. NNC(=O)Cc1ccc(CCc2ccc(N3CCNCC3)s2)cc1 [Production Example 74, trihydrochloride] | 4.1 nM
4. CC(=O)N1CCN(c2ccc(CCc3ccc(CNC(=O)NN)cc3F)nc2)CC1 [Production Example 114, trihydrochloride] | 1.2 nM
5. NNC(=O)Cc1ccc(CCc2csc(N3CCNCC3)n2)cc1 [Production Example 95, dihydrochloride] | 3.5 nM
6. CCN(CC)c1ccc(CCc2ccc(CC(=O)NN)cc2)cc1 [Production Example 30, dihydrochloride] | 2.2 nM
7. NNC(=O)Cc1ccc(CCc2ccc(N3CCNCC3)cn2)cc1 | 1 nM
